Test: mitochondrial membrane potential change in A549 cells, profiling panel, cell-based, JC-1 fluorescence, basal, 24 h, 100 nL (AID 1138);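 further: A549 lung adenocarcinoma cells under basal conditions with no added stimulus; test concentration not given here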
Conditions: higher = more signal
Kind request: treat -0.1 as inclusive, so z-score at -0.1 or higher is Fulfilled, anything lower is Not fulfilled.

Please review the following examples before continuing.
CC(=O)NCCCC[C@@H]1NC(=O)[C@@H]2C[C@H](C(=O)NCc3ccc(F)cc3)[C@H](c3cccc(OCCO)c3)N2C1=O ... Fulfilled
COc1cccc([C@H]2N[C@H](C(=O)O)CC[C@@H]2C)c1 ... Not fulfilled
COC(=O)C1=C(C)N(Cc2ccccc2)c2c(C(=O)OC)c(C(=O)OC)c(C(=O)OC)c(=O)n2[C@@H]1c1ccccc1 ... Fulfilled
CC(=O)NCCCC[C@@H]1NC(=O)[C@H]2C[C@@H](C(=O)NCCCCCCN(C)C)[C@@H](c3ccc(O)cc3)N2C1=O ... Not fulfilled
COc1ccc([C@H]2C[C@H]3C(Br)=C[C@]2(OC)C(=O)[C@]32CO2)cc1 ... Not fulfilled

Please tell me: is the compound CC(=O)NCCCC[C@@H]1NC(=O)[C@@H]2C[C@H](C(=O)NCCCCCNC(=O)CS)[C@H](c3ccc(O)cc3)N2C1=O at or over -0.1 in terms of z-score?
Fulfilled

Please tell me: is the compound CO[C@H]1COC(=O)[C@@H](C)NC(=O)CC=C[C@@H](C)[C@H](OC)COC(=O)CC=C[C@@H]1C at or over -0.1 in terms of z-score?
Fulfilled

Please tell me: is the compound CCCC=C(CCC)[C@@H](NS(=O)(=O)c1ccc(-c2ccccc2)cc1)c1ccc(C(=O)OC)cc1 at or over -0.1 in terms of z-score?
Not fulfilled

Please tell me: is the compound C=CC[C@@]12N=C(c3ccc(OCCCO)cc3)O[C@@H]1c1ccccc1CN(Cc1ccccc1)C2=O at or over -0.1 in terms of z-score?
Not fulfilled

Please tell me: is the compound Cc1ccc(S[C@]2(C(=O)NC(C)C)CC(=O)N(C3Cc4ccccc4C3)[C@@H]2c2ccc(CO)cc2)cc1 at or over -0.1 in terms of z-score?
Fulfilled
